Hi there, I'd appreciate the recorded Caspase-3/7 activity (%, 30 μM) for every entry that follows.
# System: Caspase-3/7
# procedure.details: Caspase-3/7 activity test (Caspase-Glo 3/7 Assay)
# Type: cell-based, Human
# run.conditions: HepG2, 30 μM, culture for one day, relative to maximum with Staurosporine (100%) and no test reagent (0%)
Numbers only, in %.

Example cases with answers are listed next.
Q) Give recorded Caspase-3/7 activity (%, 30 μM). CNCc1cn(S(=O)(=O)c2cnn(C)c2)c(-c2cccnc2F)c1Cl.O=C(O)/C=C/C(=O)O [Example 58]
A) −1.9

Q) Give recorded Caspase-3/7 activity (%, 30 μM). CNCc1cn(S(=O)(=O)c2cccnc2)c(-c2cccnc2Cl)c1F.O=C(O)/C=C/C(=O)O [Example 38]
A) −0.4

Q) Give recorded Caspase-3/7 activity (%, 30 μM). CNCc1cc(-c2cccnc2F)n(S(=O)(=O)c2ccccc2)c1.O=C(O)/C=C/C(=O)O [Example 1]
A) −1.3

Provide each entry's Caspase-3/7 activity (%, 30 μM) from the list below.
1. CNCc1cn(S(=O)(=O)c2ccccc2)c(-c2cccnc2F)c1F [Example 30]
2. CNCc1cc(-c2cccnc2Cl)n(S(=O)(=O)c2ccccc2)c1.Cl [Example 15]

A)
1: −0.6; 2: −0.8

Provide each entry's Caspase-3/7 activity (%, 30 μM) from the list below.
1. CNCc1cc(-c2cccnc2F)n(S(=O)(=O)c2ccc(F)cc2)c1.O=C(O)/C=C/C(=O)O [Example 20]
2. CNCc1cc(-c2cccnc2Cl)n(S(=O)(=O)c2cccc(C#N)c2)c1.O=C(O)/C=C/C(=O)O [Example 54]
3. CNCc1cn(S(=O)(=O)c2ccoc2C)c(-c2cccnc2F)c1F.Cl [Example 72]
4. CNCc1cc(-c2cccnc2F)n(S(=O)(=O)c2ccco2)c1.O=C(O)/C=C/C(=O)O [Example 3]
5. CNCc1cc(-c2cccnc2C#N)n(S(=O)(=O)c2ccccc2C#N)c1.Cl [Example 101]
6. CNCc1cn(S(=O)(=O)c2cccc(CO)c2)c(-c2cccnc2F)c1F [Example 48]
7. CNCc1cc(-c2cccnc2C#N)n(S(=O)(=O)c2ccccc2)c1.Cl [Example 16]
8. CNCc1cn(S(=O)(=O)c2ccc(C#N)o2)c(-c2cccnc2F)c1F.O=C(O)/C=C/C(=O)O [Example 68]

A)
−0.2
−0.4
−0.5
−0.5
−0.5
−0.8
0
3.6

Provide each entry's Caspase-3/7 activity (%, 30 μM) from the list below.
1. CNCc1cn(S(=O)(=O)c2cnn(C(F)F)c2)c(-c2cccnc2F)c1F.Cl [Example 81]
2. CNCc1cc(-c2cccnc2C#N)n(S(=O)(=O)c2ccccc2Cl)c1.Cl [Example 99]
3. CNCc1cn(S(=O)(=O)c2cccnc2)c(-c2cccnc2F)c1F.O=C(O)/C=C/C(=O)O [Example 8]
4. CNCc1cn(S(=O)(=O)c2ccoc2)c(-c2cccnc2F)c1F.Cl [Example 50]
5. CNCc1cn(S(=O)(=O)c2ccccc2)c(-c2cccnc2F)c1C.Cl [Example 26]

A)
−0.2
0.0
0.2
−0.3
−0.2

Provide each entry's Caspase-3/7 activity (%, 30 μM) from the list below.
1. CNCc1cn(S(=O)(=O)c2ccc(CO)o2)c(-c2cccnc2F)c1F [Example 64]
2. CNCc1cn(S(=O)(=O)c2nccs2)c(-c2cccnc2F)c1F.Cl [Example 83]
3. CNCc1cc(-c2ccc(C)nc2F)n(S(=O)(=O)c2cccnc2)c1.O=C(O)/C=C/C(=O)O [Example 13]

A)
1. −0.1
2. 0.3
3. 0.2

Provide each entry's Caspase-3/7 activity (%, 30 μM) from the list below.
1. CNCc1cn(S(=O)(=O)c2ccccn2)c(-c2cccnc2F)c1F.Cl [Example 85]
2. CNCc1cn(S(=O)(=O)c2ccc(CF)o2)c(-c2cccnc2F)c1F.O=C(O)/C=C/C(=O)O [Example 66]

A)
1: −0.6; 2: −0.2

---

# Tested on: HepG2
# procedure.details: ATP content test (intracellular ATP content, ATPLite)
# Format: cell-based, Human
# run.conditions: HepG2, 30 μM, culture for one day, relative value to control (without addition of drug)
assay.readout: ATP content (%, 30 μM) (%)
Give bare numbers, in %.

Q) Give recorded ATP content (%, 30 μM). `CNCc1cc(-c2cccnc2Cl)n(S(=O)(=O)c2ccccc2)c1.Cl`
A) 90.4

Q) Give recorded ATP content (%, 30 μM). `CNCc1cc(-c2cccnc2F)n(S(=O)(=O)c2ccc(F)cc2)c1.O=C(O)/C=C/C(=O)O`
A) 86.6

Q) Give recorded ATP content (%, 30 μM). `CNCc1cc(-c2cccnc2F)n(S(=O)(=O)c2ccccc2)c1.O=C(O)/C=C/C(=O)O`
A) 88.1

Q) Give recorded ATP content (%, 30 μM). `CNCc1cn(S(=O)(=O)c2ccccc2)c(-c2cccnc2F)c1F`
A) 97.3

Continue with the compound presented below.
Q) Give recorded ATP content (%, 30 μM). `CNCc1cc(-c2cccnc2C#N)n(S(=O)(=O)c2ccccc2Cl)c1.Cl`
A) 82.7

---

Hi there, I'd appreciate the recorded ATP content (%, 30 μM) for every entry that follows.
# System: HepG2
# procedure.details: ATP content test (intracellular ATP content, ATPLite)
# Assay type: cell-based, Human
# run.conditions: HepG2, 30 μM, culture for one day, relative value to control (without addition of drug)
Answers are plain numbers, in %.

Provide each entry's ATP content (%, 30 μM) from the list below.
1. CNCc1cn(S(=O)(=O)c2cnn(C(F)F)c2)c(-c2cccnc2F)c1F.Cl
2. CNCc1cc(-c2cccnc2Cl)n(S(=O)(=O)c2cccc(C#N)c2)c1.O=C(O)/C=C/C(=O)O
3. CNCc1cn(S(=O)(=O)c2ccc(CO)o2)c(-c2cccnc2F)c1F
4. CNCc1cn(S(=O)(=O)c2ccccc2)c(-c2cccnc2F)c1C.Cl
5. CNCc1cc(-c2ccc(C)nc2F)n(S(=O)(=O)c2cccnc2)c1.O=C(O)/C=C/C(=O)O
6. CNCc1cn(S(=O)(=O)c2cnn(C)c2)c(-c2cccnc2F)c1Cl.O=C(O)/C=C/C(=O)O

A)
101.7
96.8
102.2
85.2
87.7
98.0

---

# target.or.test.system: proton, potassium-adenosine triphosphatase (H+,K+-ATPase) (Sus scrofa)
# Construct: a gastric mucous membrane microsomal fraction was prepared from the stomach of swine
# Sequence (P19156 2-1034 limits assumed): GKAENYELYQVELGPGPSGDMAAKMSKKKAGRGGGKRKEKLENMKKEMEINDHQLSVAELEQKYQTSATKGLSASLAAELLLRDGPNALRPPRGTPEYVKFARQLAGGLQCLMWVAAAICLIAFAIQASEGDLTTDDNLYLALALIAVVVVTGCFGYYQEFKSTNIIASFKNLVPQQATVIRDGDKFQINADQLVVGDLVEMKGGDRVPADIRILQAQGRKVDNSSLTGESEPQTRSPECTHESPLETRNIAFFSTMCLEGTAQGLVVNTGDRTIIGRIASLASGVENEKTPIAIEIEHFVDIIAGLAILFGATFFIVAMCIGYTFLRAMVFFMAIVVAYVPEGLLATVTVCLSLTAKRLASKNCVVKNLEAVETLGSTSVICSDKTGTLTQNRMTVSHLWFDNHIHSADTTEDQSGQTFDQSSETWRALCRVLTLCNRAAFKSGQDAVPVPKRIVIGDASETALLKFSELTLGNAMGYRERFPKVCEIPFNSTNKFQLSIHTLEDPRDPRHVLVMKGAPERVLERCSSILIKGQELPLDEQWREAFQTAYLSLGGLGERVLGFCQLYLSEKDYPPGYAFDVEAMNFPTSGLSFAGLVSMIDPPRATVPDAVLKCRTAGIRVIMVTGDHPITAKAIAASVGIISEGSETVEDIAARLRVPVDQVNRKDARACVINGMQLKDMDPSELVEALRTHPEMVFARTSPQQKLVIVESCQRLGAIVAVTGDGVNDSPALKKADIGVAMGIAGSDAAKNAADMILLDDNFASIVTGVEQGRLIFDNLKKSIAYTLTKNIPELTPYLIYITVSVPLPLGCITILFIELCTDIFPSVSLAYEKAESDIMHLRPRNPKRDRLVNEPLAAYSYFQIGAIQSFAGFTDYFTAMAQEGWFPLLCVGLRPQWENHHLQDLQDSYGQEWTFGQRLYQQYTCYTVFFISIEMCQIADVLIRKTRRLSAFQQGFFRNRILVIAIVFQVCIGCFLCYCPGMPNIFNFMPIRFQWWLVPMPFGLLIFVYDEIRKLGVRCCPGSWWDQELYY
# Sequence (P18434 whole entry partner): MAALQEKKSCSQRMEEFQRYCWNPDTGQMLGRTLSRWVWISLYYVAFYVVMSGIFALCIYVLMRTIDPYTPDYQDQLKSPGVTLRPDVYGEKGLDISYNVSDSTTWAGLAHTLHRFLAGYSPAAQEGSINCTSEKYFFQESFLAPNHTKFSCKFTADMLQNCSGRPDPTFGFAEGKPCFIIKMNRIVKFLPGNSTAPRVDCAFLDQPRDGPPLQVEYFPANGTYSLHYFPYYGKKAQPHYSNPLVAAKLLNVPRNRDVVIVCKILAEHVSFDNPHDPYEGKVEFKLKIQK
# procedure.details: Proton potassium-adenosine triphosphatase (H+,K+-ATPase) inhibitory activity test
# run.conditions: swine gastric microsomal fraction, pH 6.5, 37° C.
Hi there, I'd appreciate the recorded pIC50 for every entry that follows.
Answers are plain numbers, as −log10 of the molar value.

Example cases with answers are listed next.
Q) Give recorded pIC50. CNCc1cn(S(=O)(=O)c2cnn(C)c2)c(-c2cccnc2F)c1Cl.O=C(O)/C=C/C(=O)O [Example 58, fumarate]
A) 6.52

Q) Give recorded pIC50. CNCc1cc(-c2cccnc2F)n(S(=O)(=O)c2ccccc2)c1.O=C(O)/C=C/C(=O)O [Example 1, fumarate]
A) 7.59

Q) Give recorded pIC50. CNCc1cn(S(=O)(=O)c2ccc(C#N)o2)c(-c2cccnc2F)c1F.O=C(O)/C=C/C(=O)O [Example 68, fumarate]
A) 6.77

Provide each entry's pIC50 from the list below.
1. CNCc1cn(S(=O)(=O)c2ccoc2)c(-c2cccnc2F)c1F.Cl [Example 50, hydrochloride]
2. CNCc1cn(S(=O)(=O)c2ccc(CF)o2)c(-c2cccnc2F)c1F.O=C(O)/C=C/C(=O)O [Example 66, fumarate]
3. CNCc1cc(-c2cccnc2Cl)n(S(=O)(=O)c2cccc(C#N)c2)c1.O=C(O)/C=C/C(=O)O [Example 54, fumarate]
4. CNCc1cc(-c2ccc(C)nc2F)n(S(=O)(=O)c2cccnc2)c1.O=C(O)/C=C/C(=O)O [Example 13, fumarate]
5. CNCc1cn(S(=O)(=O)c2cccnc2)c(-c2cccnc2Cl)c1F.O=C(O)/C=C/C(=O)O [Example 38, fumarate]
6. CNCc1cn(S(=O)(=O)c2cccnc2)c(-c2cccnc2F)c1F.O=C(O)/C=C/C(=O)O [Example 8, fumarate]
7. CNCc1cn(S(=O)(=O)c2cccnc2)c(-c2cccnc2F)c1F

A)
[7.22, 6.85, 7.19, 6.92, 6.89, 7.05, 7.15]

Provide each entry's pIC50 from the list below.
1. CNCc1cc(-c2cccnc2F)n(S(=O)(=O)c2ccc(F)cc2)c1.O=C(O)/C=C/C(=O)O [Example 20, fumarate]
2. CNCc1cc(-c2cccnc2F)n(S(=O)(=O)c2ccco2)c1.O=C(O)/C=C/C(=O)O [Example 3, fumarate]

A)
1. 7.24
2. 7.23

---

Hi there, I'd appreciate the recorded ATP content (%, 30 μM) for every entry that follows.
# System: HepG2
# procedure.details: ATP content test (intracellular ATP content, ATPLite)
# Format: cell-based, Human
# run.conditions: HepG2, 30 μM, culture for one day, relative value to control (without addition of drug)
Answers are plain numbers, in %.

Example cases with answers are listed next.
Q) Report value only: ATP content (%, 30 μM), HepG2, `CNCc1cn(S(=O)(=O)c2cccnc2)c(-c2cccnc2Cl)c1F.O=C(O)/C=C/C(=O)O`
A) 93.4

Q) Report value only: ATP content (%, 30 μM), HepG2, `CNCc1cn(S(=O)(=O)c2ccccn2)c(-c2cccnc2F)c1F.Cl`
A) 102.0

Q) Report value only: ATP content (%, 30 μM), HepG2, `CNCc1cn(S(=O)(=O)c2ccc(CF)o2)c(-c2cccnc2F)c1F.O=C(O)/C=C/C(=O)O`
A) 94.8

Q) Report value only: ATP content (%, 30 μM), HepG2, `CNCc1cn(S(=O)(=O)c2cccc(CO)c2)c(-c2cccnc2F)c1F`
A) 92.7

Q) Report value only: ATP content (%, 30 μM), HepG2, `CNCc1cn(S(=O)(=O)c2ccoc2C)c(-c2cccnc2F)c1F.Cl`
A) 88.1

Q) Report value only: ATP content (%, 30 μM), HepG2, `CNCc1cc(-c2cccnc2F)n(S(=O)(=O)c2ccco2)c1.O=C(O)/C=C/C(=O)O`
A) 91.4

Q) Report value only: ATP content (%, 30 μM), HepG2, `CNCc1cn(S(=O)(=O)c2nccs2)c(-c2cccnc2F)c1F.Cl`
A) 96.6

Continue with the molecule presented below.
Q) Report value only: ATP content (%, 30 μM), HepG2, `CNCc1cn(S(=O)(=O)c2cccnc2)c(-c2cccnc2F)c1F.O=C(O)/C=C/C(=O)O`
A) 103.9

Recorded values, source patent US8933105B2.
